# Tested on: AR 1.0 cells
# Assay Procedure: Potentiation of doxorubicin toxicity: proliferation assay (sulphorhodamine B)
# Type: cell-based, mouse
# Condition Label: with fixed doxorubicin 0.34 μm; four days; 5760 min; read-out: Toxicity with Cytotoxic Agent (IC50)
pIC50: −log10 of the molar value.
Could you label it 1.0 if measured pIC50 is 7 or higher, and 0.0 otherwise?

>>> assigned_category("CCC(=O)c1cnc(C(=O)Nc2ccccc2C(=O)Nc2ccc(CCN3CCc4cc(OC)c(OC)cc4C3)cc2)cn1 [compound 9569]")
1.0
>>> assigned_category("COc1cc2c(cc1OC)CN(CCc1ccc(NC(=O)c3cc(F)ccc3NC(=O)c3cnc4ccccc4n3)cc1)CC2 [compound 9568]")
1.0
>>> assigned_category("COc1cc2c(cc1OC)CN(CCc1ccc(NC(=O)c3cc(O)ccc3NC(=O)c3cnc4ccccc4n3)cc1)CC2 [compound 9554]")
1.0
>>> assigned_category("COc1cc2c(cc1OC)CN(CCc1ccc(NC(=O)c3ccccc3NC(=O)c3cccc(OC(C)=O)c3)cc1)CC2 [compound 9540]")
0.0

---

# Tested on: AR 1.0 cells
# Assay Procedure: Potentiation index with doxorubicin titration
# Format: cell-based, mouse
# Condition Label: Table C1, RMA 10 nM
# Method: The EMT6 mouse mammary carcinoma cell line and the MDR resistant subline AR 1.0 were cultured in RPMI 1640 medium containing 10% foetal calf serum and 2 mM glutamine at 37° C. in 5% CO2. […] (b) Cells were cultured for four days with a titration of doxorubicin (0.263 nM-17.24 μM) in the presence of a fixed concentration of each compound. Proliferation was quantified as described by Skehen et al, loc cit. […]
The following molecules are listed with their measured Potentiation Index at RMA concentration 10 nM values.
Observable: Potentiation Index at RMA concentration 10 nM

>>> assay_result("COc1ccc(CN(C)CCc2ccc(NC(=O)c3ccccc3NC(=O)c3cnc4ccccc4c3)cc2)cc1OC")
3
>>> assay_result("COc1cc2c(cc1OC)CN(CCc1ccc(NC(=O)c3cscc3NC(=O)c3cnc4ccccc4c3)cc1)CC2")
13
>>> assay_result("COc1cc2c(cc1OC)C(C)N(CCc1ccc(NC(=O)c3ccccc3NC(=O)c3cnc4ccccc4c3)cc1)CC2 (stereo not shown)")
1
>>> assay_result("COc1ccc(CN(C)CCc2ccc(NC(=O)c3ccccc3NC(=O)c3cnc4ccccc4n3)cc2)cc1OC")
11

---

The following compounds are listed with their measured Potentiation Index at RMA concentration 50 nM values.
# Tested on: AR 1.0 cells
# Assay Procedure: Potentiation index with doxorubicin titration
# Type: cell-based, mouse
# Condition Label: Table C1, RMA 50 nM
Observable: Potentiation Index at RMA concentration 50 nM

>>> assay_result("CCCCOc1ccc(CN(C)CCc2ccc(NC(=O)c3ccccc3NC(=O)c3cnc4ccccc4c3)cc2)cc1OC [compound 9642]")
2.5
>>> assay_result("CCN(CCc1ccc(NC(=O)c2ccccc2NC(=O)c2cnc3ccccc3c2)cc1)Cc1ccc(OC)c(OC)c1 [compound 9636]")
46
>>> assay_result("CCCCN(CCc1ccc(NC(=O)c2ccccc2NC(=O)c2cnc3ccccc3c2)cc1)Cc1ccc(OC)c(OC)c1 [compound 9641]")
46
>>> assay_result("COc1cc(CN(C)CCc2ccc(NC(=O)c3ccccc3NC(=O)c3cnc4ccccc4c3)cc2)ccc1OC(C)C [compound 9646]")
1.3
